Where these numbers come from: patent US9957265B2

IC50 for assorted compounds
- testedSystem: JAK2 (Homo sapiens (Human))
- test: Jak Biochemical HTRF Assay (JAK2)
- experimentalParameters: read-out: JAK2 IC50, recombinant GST-tagged catalytic domain, [ATP] 8.5 μM, unit not given (compound concentrations tested given in nM)
Write the value in nM as a bare number.

Solved entries (count: 2):
Qu. Item under review: Cc1ccc(Nc2nn([C@H]3COCC[C@@H]3C#N)c3cc[nH]c(=O)c23)cc1C . Reported IC50?
Ans. 1.83

Qu. Using the record for C[C@@H]1CN(S(=O)(=O)c2ccc(Nc3nn([C@H]4COCC[C@@H]4C#N)c4cc[nH]c(=O)c34)cc2)C[C@H](C)O1 , report its IC50.
Ans. 0.7

Now let's try a different one.
Qu. Entry CC(C)NC1(C)C(=O)Nc2cc(Nc3nn(C4COCC[C@@H]4C#N)c4cc[nH]c(=O)c34)ccc21 (single isomer, unassigned) has what IC50?
Ans. 0.05

----------
As shown below, each of these compounds has a reported log10 of IC50 value.
- testedSystem: JAK2 (Homo sapiens (Human))
- test: Jak Biochemical HTRF Assay (JAK2)
- experimentalParameters: read-out: JAK2 IC50, recombinant GST-tagged catalytic domain, [ATP] 8.5 μM, unit not given (compound concentrations tested given in nM)
Values below are the log10 of the recorded IC50, with nM as the unit.

Below are worked cases with known answers.
Qu. Which log10 of IC50 value is on record for CCC(C)(C)S(=O)(=O)c1ccc(Nc2nn([C@H]3COCC[C@@H]3C#N)c3cc[nH]c(=O)c23)cc1 [Example 1-65] ?
Ans. -0.59

Qu. Which log10 of IC50 is listed for CS(=O)(=O)c1ccc(Nc2nn([C@@H]3COCC[C@H]3C#N)c3cc[nH]c(=O)c23)cc1 [Example 1-1] ?
Ans. 1.06

More entries:
Qu. What measured log10 of IC50 goes with N#C[C@H]1CCOC[C@@H]1n1nc(Nc2ccnc(F)c2)c2c(=O)[nH]ccc21 [Example 1-30] ?
Ans. 0.67

Qu. Requested field: log10 of IC50. Item: CS(=O)(=O)c1cc(Nc2nn(C3COCC[C@@H]3C#N)c3cc[nH]c(=O)c23)ccc1Cl (some centres unmarked) [Example 3-1]
Ans. 0.87

Qu. For the compound CC1(C)CCCN1S(=O)(=O)c1ccc(Nc2nn([C@H]3COCC[C@@H]3C#N)c3cc[nH]c(=O)c23)cc1 [Example 1-72] , what log10 of IC50 is on record?
Ans. -0.70

Qu. Need log10 of IC50 of N#Cc1ccc(Nc2nn([C@H]3COCC[C@@H]3C#N)c3cc[nH]c(=O)c23)cc1F [Example 1-32] , thanks.
Ans. 0.32

Qu. Which log10 of IC50 is listed for N#C[C@H]1CCOC[C@@H]1n1nc(Nc2ccc(C(NC3CC3)C(F)(F)F)cc2)c2c(=O)[nH]ccc21 (single isomer, unassigned) [Example 1-81] ?
Ans. -0.82

----------
- testedSystem: JAK2 (Homo sapiens (Human), UniProt O60674)
- Sequence (O60674 849-1124): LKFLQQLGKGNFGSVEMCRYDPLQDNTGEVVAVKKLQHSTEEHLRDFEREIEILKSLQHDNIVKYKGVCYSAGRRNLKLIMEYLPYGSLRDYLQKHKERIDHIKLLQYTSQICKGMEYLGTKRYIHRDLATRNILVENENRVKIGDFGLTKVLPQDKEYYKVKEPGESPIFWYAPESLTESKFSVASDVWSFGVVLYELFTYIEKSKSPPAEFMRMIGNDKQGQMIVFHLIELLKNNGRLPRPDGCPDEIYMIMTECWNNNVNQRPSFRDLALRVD
- test: Jak Biochemical HTRF Assay (JAK2)
- experimentalParameters: JAK2 IC50, recombinant GST-tagged catalytic domain, [ATP] 8.5 μM, unit not given (compound concentrations tested given in nM)
Entries annotated with measured IC50
Provide the reading as a plain figure in nM.

See these solved cases before continuing.
Qu. What is its IC50 for JAK2 (Homo sapiens (Human), UniProt O60674)? Entry: CC(C)(C)S(=O)(=O)c1ccc(Nc2nn([C@@H]3COCCC[C@H]3C#N)c3cc[nH]c(=O)c23)cc1 (single isomer, unassigned)
Ans. 0.69

Qu. Given the entry N#C[C@H]1CCOC[C@@H]1n1nc(Nc2ccc(C(N3CCSCC3)C(F)(F)F)cc2)c2c(=O)[nH]ccc21 (single isomer, unassigned) [Example 2-5] , what IC50 was observed with JAK2 (Homo sapiens (Human), UniProt O60674)?
Ans. 0.15

Qu. Form field - read-out: IC50; system: JAK2 (Homo sapiens (Human), UniProt O60674); submitted item: CN(C)C(c1ccc(Nc2nn([C@H]3COCC[C@@H]3C#N)c3cc[nH]c(=O)c23)cc1)C(F)(F)F (single isomer, unassigned) [Example 1-58]
Ans. 0.13

Qu. Lab note: need IC50 for C[S+]([O-])c1cc(Nc2nn([C@H]3COCC[C@@H]3C#N)c3cc[nH]c(=O)c23)ccc1F (single isomer, unassigned) [Example 3-2] on JAK2 (Homo sapiens (Human), UniProt O60674), anyone have it?
Ans. 13.7

Qu. Provide the documented IC50 with JAK2 (Homo sapiens (Human), UniProt O60674) as the system for CC1(C)CC1NC(c1ccc(Nc2nn([C@H]3COCC[C@@H]3C#N)c3cc[nH]c(=O)c23)cc1)C(F)(F)F (single isomer, unassigned) [Example 1-48]
Ans. 1.73

Let us move to another entry and its IC50.
Qu. # value lookup — system JAK2 (Homo sapiens (Human), UniProt O60674), readout IC50, item CN(C)C(c1ccc(Nc2nn([C@H]3COCC[C@@H]3C#N)c3cc[nH]c(=O)c23)cc1)C(F)(F)F (single isomer, unassigned) [Example 1-19]
Ans. 0.08

----------
- testedSystem: JAK2 (Homo sapiens (Human), UniProt O60674)
- test: Jak Biochemical HTRF Assay (JAK2)
- experimentalParameters: JAK2 IC50, recombinant GST-tagged catalytic domain, [ATP] 8.5 μM, unit not given (compound concentrations tested given in nM)
valueType: IC50 (nM)
# unit: nM | format: bare number

Record excerpt, results attached:
Qu. // query IC50 value for entry CC1(C)CC1NC(c1ccc(Nc2nn([C@H]3COCC[C@@H]3C#N)c3cc[nH]c(=O)c23)cc1)C(F)(F)F (single isomer, unassigned) [Example 1-46]
Ans. 0.21

Qu. // lookup IC50 for CC(c1ccc(Nc2nn([C@H]3COCC[C@@H]3C#N)c3cc[nH]c(=O)c23)cc1)n1nccn1 (single isomer, unassigned) [Example 1-45]
Ans. 0.21

Okay, now this compound:
Qu. Given the entry CC(C)(C)OC(=O)CNC(c1ccc(Nc2nn([C@H]3COCC[C@@H]3C#N)c3cc[nH]c(=O)c23)cc1)C(F)(F)F (single isomer, unassigned) [Example 1-41] , report its measured IC50.
Ans. 0.6

----------
Listed molecules paired with reported IC50
- testedSystem: JAK1 (Homo sapiens (Human), UniProt P23458)
- Sequence (P23458 875-1153): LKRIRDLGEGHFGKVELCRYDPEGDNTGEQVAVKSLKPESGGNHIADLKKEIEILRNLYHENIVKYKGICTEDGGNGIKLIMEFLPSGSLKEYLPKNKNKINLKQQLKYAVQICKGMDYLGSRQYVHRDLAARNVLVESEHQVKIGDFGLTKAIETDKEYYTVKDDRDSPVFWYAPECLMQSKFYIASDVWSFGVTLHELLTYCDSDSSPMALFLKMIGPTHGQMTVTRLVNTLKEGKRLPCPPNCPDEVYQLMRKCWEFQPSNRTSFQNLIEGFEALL
- test: Jak Biochemical HTRF Assay (JAK1)
- experimentalParameters: recombinant GST-tagged catalytic domain, [ATP] 31.8 μM, unit not given (compound concentrations tested given in nM)

The following molecules have reported results that may help.
Qu. I'm curious: which IC50 was measured for CC(C)(C)S(=O)(=O)c1ccc(Nc2nn([C@@H]3COCCC[C@H]3C#N)c3cc[nH]c(=O)c23)cc1 (single isomer, unassigned) [Example 1-23] tested on JAK1 (Homo sapiens (Human), UniProt P23458)?
Ans. 0.25 nM

Qu. Provide the documented IC50 with JAK1 (Homo sapiens (Human), UniProt P23458) as the system for CC1CCCN1C(c1ccc(Nc2nn([C@H]3COCC[C@@H]3C#N)c3cc[nH]c(=O)c23)cc1)C(F)(F)F (single isomer, unassigned) [Example 1-88]
Ans. 0.11 nM

Further cases:
Qu. Look up IC50 with JAK1 (Homo sapiens (Human), UniProt P23458) for this molecule: CN(C)C(c1ccc(Nc2nn([C@H]3COCC[C@@H]3C#N)c3cc[nH]c(=O)c23)cc1)C(F)(F)F (single isomer, unassigned) [Example 1-19]
Ans. 0.05 nM

----------
Reported log10(IC50) by item:
- testedSystem: JAK2 (Homo sapiens (Human), UniProt O60674)
- test: Jak Biochemical HTRF Assay (JAK2)
- experimentalParameters: JAK2 IC50, recombinant GST-tagged catalytic domain, [ATP] 8.5 μM, unit not given (compound concentrations tested given in nM)
Heads up: the numbers are on a log10 scale; they represent IC50 in nM.

Qu. I am curious: what log10(IC50) value has been reported for CC(C)NC1(C)C(=O)Nc2cc(Nc3nn(C4COCC[C@@H]4C#N)c4cc[nH]c(=O)c34)ccc21 (single isomer, unassigned) [Example 1-100] ?
Ans. -1.30

Qu. Fill in the blank: the reported log10(IC50) of N#C[C@H]1CCOCC1n1nc(Nc2ccc(C(O)(c3ccccn3)C(F)(F)F)cc2)c2c(=O)[nH]ccc21 (single isomer, unassigned) [Example 1-97] is ____.
Ans. -0.74

Qu. Give the measured log10(IC50) of CC(C)NC(c1ccc(Nc2nn([C@H]3COCC[C@@H]3C#N)c3cc[nH]c(=O)c23)cc1)C(F)(F)F (single isomer, unassigned) [Example 1-52] .
Ans. -0.96

Here's the next entry for you.
Qu. Give its log10(IC50) value. Item: N#C[C@H]1CCOC[C@@H]1n1nc(Nc2ccc(C(N3CCNCC3)C(F)(F)F)cc2)c2c(=O)[nH]ccc21 (single isomer, unassigned) [Example 1-39]
Ans. -0.77
